targetOrTestSystem: α-glucosidase (Saccharomyces cerevisiae)
Sequence (P53341 whole entry): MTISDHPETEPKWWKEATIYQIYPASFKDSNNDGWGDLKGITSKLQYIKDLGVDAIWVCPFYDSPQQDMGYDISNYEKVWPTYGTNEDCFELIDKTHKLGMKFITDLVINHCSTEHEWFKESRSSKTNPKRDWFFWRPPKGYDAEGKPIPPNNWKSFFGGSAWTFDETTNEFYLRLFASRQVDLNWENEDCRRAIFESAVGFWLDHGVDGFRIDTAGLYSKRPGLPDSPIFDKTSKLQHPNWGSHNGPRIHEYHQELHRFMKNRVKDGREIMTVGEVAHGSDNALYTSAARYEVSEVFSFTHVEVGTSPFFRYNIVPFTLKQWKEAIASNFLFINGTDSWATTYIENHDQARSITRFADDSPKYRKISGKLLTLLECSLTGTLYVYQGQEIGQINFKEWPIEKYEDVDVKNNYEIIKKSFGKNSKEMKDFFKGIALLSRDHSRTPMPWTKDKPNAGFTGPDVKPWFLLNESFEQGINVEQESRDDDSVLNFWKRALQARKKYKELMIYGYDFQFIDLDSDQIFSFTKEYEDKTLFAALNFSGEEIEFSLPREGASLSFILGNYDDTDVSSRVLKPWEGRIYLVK
assayNotes: α-Glucosidase inhibitory assay
Type: biochemical
experimentalContext: 4-nitrophenyl-α-D-glucopyranoside substrate, 37°C, 30 min, absorbance 405 nm; read-out: IC50 (μM), α-glucosidase inhibitory activities
Collected IC50 values appear next to each entry.

Consider the following illustrative entries.
[
  {
    "molecule": "COc1cc(O[C@@H]2O[C@H](CO)[C@@H](O)[C@H](O)[C@H]2O)c2c(O)c3c(=O)cc(C)oc3cc2c1 [Compound 11, rubrofusarin-6-O-β-D-glucopyranoside]",
    "targetOrTestSystem": "α-glucosidase (Saccharomyces cerevisiae)",
    "reportedValue": "28 µM"
  },
  {
    "molecule": "COc1cc(O[C@@H]2O[C@H](CO[C@@H]3O[C@@H](C)[C@H](O)[C@@H](O)[C@H]3O)[C@@H](O)[C@H](O)[C@H]2O)c2c(O)c3c(=O)cc(C)oc3cc2c1",
    "targetOrTestSystem": "α-glucosidase (Saccharomyces cerevisiae)",
    "reportedValue": "> 50 µM"
  }
]

State, in one line, measured IC50 of COc1c(O)c(O)cc2c1C(=O)c1c(O)cc(C)cc1C2=O [Compound 18, 2-hydroxyemodin 1-methyl ether]
> 50 µM
